Assay: Membrane permeability test using Caco-2 cells with preincubation
Type: in vitro ADME
Settings: Caco-2; preincubation 20 to 24 hours; Apical FaSSIF/HBSS pH 6.0, Basal HBSS 4% BSA pH 7.4; 180 minutes; read-out: Caco2 Papp
Protocol: The permeability coefficient (Caco-2 Papp (cm/sec)) is calculated using a numerical expression 1. [Expression 1] Papp = (1)/(C1 (0) × S) × (dQ)/(dt) [formula] dQ/dt represents the permeation rate of drug (the amount of drug appearing on the Basal side per unit time), S represents the total surface area of cells, and C1(0) represents the concentration of drug added on the Apical side. […]
Starred links: 1 amine or outer side, 2 acyl side, 3 side chain; linkers in the order of their positions; H or OH if unused. Positions of bridges follow the written chain, without caps; N, C: chain ends. Non-standard residues stand in square brackets, D forms with d. Residues, ends and D or L forms follow the SMILES beside them. *: point of attachment. NMeF = CN[C@@H](Cc1ccccc1)C(=O)O; NMeI = CC[C@H](C)[C@H](NC)C(=O)O; NMeT = CN[C@H](C(=O)O)[C@@H](C)O; hPhe = N[C@@H](CCc1ccccc1)C(=O)O; NMeβAla = CN(CCC(=O)[*:2])[*:1]; NMeD = CN[C@@H](CC(=O)O)C(=O)O; NMeL = CN[C@@H](CC(C)C)C(=O)O; dNMeV = CN[C@@H](C(=O)O)C(C)C; NMeV = CN[C@H](C(=O)O)C(C)C; d(β3hA) = C[C@@H](N)CC(=O)O; NMeAbu = CC[C@H](NC)C(=O)O; NMeA = CN[C@@H](C)C(=O)O; Piperidide = C1CCN(*)CC1; Abu = CC[C@H](N)C(=O)O; Sar = CNCC(=O)O; tBu = CC(C)(C)*
Each item that follows carries a reported Papp A→B.
Expressed in ×10⁻⁶ cm/s, but write only the number.

Compound | Papp A→B (×10⁻⁶ cm/s)
CC[C@H]1C(=O)N(C)[C@@H](Cc2ccccc2)C(=O)N(C)[C@@H](CC(C)C)C(=O)N[C@@H](CC(C)C)C(=O)N(C)[C@@H](C(C)C)C(=O)N[C@H](C)CC(=O)N(C)CC(=O)N(C)[C@@H](C(C)C)C(=O)N(C)[C@@H](CC(C)C)C(=O)N(C)[C@@H](C)C(=O)N(C)[C@@H](CC(C)C)C(=O)N[C@@H]([C@@H](C)O)C(=O)N(C)CC(=O)N1C [pd140] (cyclo(L[NMeV][d(β3hA)][Sar][NMeV][NMeL][NMeA][NMeL]T[Sar][NMeAbu][NMeF][NMeL])) | 0.31
CC[C@@H]1NC(=O)[C@H](C(C)C)N(C)C(=O)[C@H](CC(C)C)NC(=O)[C@H](Cc2ccccc2)N(C)C(=O)[C@@H](C(C)C)N(C)C(=O)C[C@@H](C(=O)N2CCCCC2)NC(=O)[C@H](CC(C)C)NC(=O)[C@H](C(C)C)N(C)C(=O)[C@H](Cc2ccccc2)N(C)C(=O)[C@H](CC(C)C)NC(=O)[C@H](CC(C)C)N(C)C(=O)[C@H](C)N(C)C(=O)[C@H]([C@@H](C)O)NC(=O)[C@H](CC(C)C)N(C)C1=O [pd033] ([dNMeV][NMeF]L[NMeV][Abu][NMeL]T[NMeA][NMeL]L[NMeF][NMeV]LD-Piperidide; lactam N-14) | 0.03
CC[C@@H]1NC(=O)[C@H](C(C)C)N(C)C(=O)[C@H](C(C)C)NC(=O)[C@H](C)N(C)C(=O)CCN(C)C(=O)[C@H](CCc2ccccc2)NC(=O)[C@H](CC(C)C)N(C)C(=O)[C@H]([C@@H](C)CC)NC(=O)CN(C)C(=O)C[C@@H](C(=O)N2CCCCC2)N(C)C(=O)[C@H](CC(C)C)NC(=O)[C@H](CC(C)C)N(C)C(=O)[C@H]([C@@H](C)O)NC(=O)[C@H](Cc2ccccc2)N(C)C1=O [pd088] ([Sar]I[NMeL][hPhe][NMeβAla][NMeA]V[NMeV][Abu][NMeF]T[NMeL]L[NMeD]-Piperidide; lactam N-14) | 0.11
CC(C)C[C@@H]1NC(=O)[C@H](C(C)C)N(C)C(=O)[C@H](Cc2ccccc2)N(C)C(=O)[C@H](CC(C)C)NC(=O)[C@H](CC(C)C)N(C)C(=O)[C@H](C)N(C)C(=O)[C@H]([C@@H](C)O)NC(=O)[C@H](CC(C)C)N(C)C(=O)[C@H](C(C)C)N(C)C(=O)[C@H](CC(C)C)NC(=O)[C@H](Cc2ccccc2)N(C)C(=O)[C@@H](C(C)C)N(C)C(=O)C[C@@H](C(=O)N2CCCCC2)NC1=O [pd108] ([dNMeV][NMeF]L[NMeV][NMeL]T[NMeA][NMeL]L[NMeF][NMeV]LD-Piperidide; lactam N-13) | 0.03
CC[C@H](C)[C@@H]1NC(=O)[C@H](C)N(C)C(=O)C[C@@H](C(=O)N2CCCCC2)NC(=O)[C@H](CC)N(C)C(=O)[C@H](COC(C)(C)C)NC(=O)[C@H](CC(C)C)N(C)C(=O)[C@H](C)N(C)C(=O)[C@H](CC(C)C)N(C)C(=O)[C@H](Cc2ccccc2)N(C)C(=O)CN(C)C(=O)[C@H]([C@@H](C)O)NC(=O)[C@H](CC(C)C)N(C)C(=O)[C@H](C(C)C)N(C)C(=O)[C@H](Cc2ccccc2)N(C)C1=O [pd004] ([NMeA]I[NMeF][NMeV][NMeL]T[Sar][NMeF][NMeL][NMeA][NMeL]S(tBu)[NMeAbu]D-Piperidide; lactam N-14) | 0.82
CC[C@@H]1NC(=O)[C@H](Cc2ccccc2)N(C)C(=O)[C@H](CC(C)C)N(C)C(=O)[C@H](CC(C)C)NC(=O)[C@H](C)N(C)C(=O)C[C@@H](C(=O)N2CCCCC2)N(C)C(=O)[C@H](CC(C)C)N(C)C(=O)[C@H]([C@@H](C)CC)NC(=O)[C@H](Cc2ccccc2)N(C)C(=O)[C@H]([C@@H](C)O)N(C)C(=O)[C@H]([C@@H](C)CC)N(C)C(=O)[C@H](CC(C)C)NC(=O)CN(C)C1=O [pd163] ([NMeA]L[NMeL][NMeF][Abu][Sar]L[NMeI][NMeT][NMeF]I[NMeL][NMeD]-Piperidide; lactam N-13) | 0.04

Consider the additional compound presented here.
Per the records, this compound ( CC[C@H](C)[C@H]1C(=O)N[C@@H]([C@@H](C)O)C(=O)N(C)CC(=O)N(C)[C@@H](CC(C)C)C(=O)N[C@@H](CC(C)C)C(=O)N[C@H](C(=O)N2CCCCC2)CC(=O)N(C)[C@@H](C)C(=O)N[C@@H](CC(C)C)C(=O)N(C)[C@@H](CC(C)C)C(=O)N[C@@H](C(C)C)C(=O)N(C)CCC(=O)N(C)[C@@H](Cc2ccccc2)C(=O)N[C@@H](C)C(=O)N(C)[C@@H](Cc2ccccc2)C(=O)N1C [pd037] ([NMeA]L[NMeL]V[NMeβAla][NMeF]A[NMeF][NMeI]T[Sar][NMeL]LD-Piperidide; lactam N-14) ) has Papp A→B equal to 0.26
